Protein target, amino acids: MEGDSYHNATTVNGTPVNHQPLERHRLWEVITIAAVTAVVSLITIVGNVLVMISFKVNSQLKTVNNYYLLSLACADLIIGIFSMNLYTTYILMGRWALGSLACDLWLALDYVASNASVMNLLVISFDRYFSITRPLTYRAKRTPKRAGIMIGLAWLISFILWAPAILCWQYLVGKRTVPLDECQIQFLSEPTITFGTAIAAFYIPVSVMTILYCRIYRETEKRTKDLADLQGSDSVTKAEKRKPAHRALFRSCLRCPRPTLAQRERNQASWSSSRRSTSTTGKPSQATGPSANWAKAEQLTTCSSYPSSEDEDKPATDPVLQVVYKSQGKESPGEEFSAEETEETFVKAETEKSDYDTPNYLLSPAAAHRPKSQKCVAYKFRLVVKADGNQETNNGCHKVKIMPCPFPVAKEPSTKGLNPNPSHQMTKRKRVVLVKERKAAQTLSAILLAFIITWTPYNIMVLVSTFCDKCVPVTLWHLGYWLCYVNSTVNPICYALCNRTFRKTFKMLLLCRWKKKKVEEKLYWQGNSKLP
pKi: −log10 of the molar value.
MEASURED QUANTITY: pKi

Task item: Tell me pKi reported for `CN1CCc2c(c3cccc4c3n2CCc2ccccc2-4)C1`
Reply: < 5.00

----------
MEASURED ON: 5-hydroxytryptamine receptor 1B (Homo sapiens)
Sequence (P28222 whole entry): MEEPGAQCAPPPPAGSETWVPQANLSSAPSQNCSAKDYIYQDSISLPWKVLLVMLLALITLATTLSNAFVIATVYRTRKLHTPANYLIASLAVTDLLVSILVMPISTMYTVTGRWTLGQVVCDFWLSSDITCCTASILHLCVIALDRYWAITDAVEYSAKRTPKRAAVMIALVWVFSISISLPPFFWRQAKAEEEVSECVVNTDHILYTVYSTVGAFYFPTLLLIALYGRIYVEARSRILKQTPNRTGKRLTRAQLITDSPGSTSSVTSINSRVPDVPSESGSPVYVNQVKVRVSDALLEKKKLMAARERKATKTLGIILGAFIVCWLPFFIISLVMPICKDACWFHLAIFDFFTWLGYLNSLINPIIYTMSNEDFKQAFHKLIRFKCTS
MEASURED QUANTITY: pKi
Please express pKi as -log10 of the molar concentration.

Task item: Tell me pKi reported for `CN1CCc2c(c3cccc4c3n2CCc2ccccc2-4)C1`
Reply: 5.91
